Assay: PAMPA-GIT permeability assay
Assay type: in vitro ADME
Details: L-α-soy phosphatidylcholine in dodecane, read-out: Experimental Pe
recorded-endpoint: Papp (×10⁻⁶ cm/s)
Respond numerically; units are ×10⁻⁶ cm/s and should not be typed.

> print(dat)
                                   compound  observed
1  COC(=O)/C=C/C(C)=C\C=C\C(C)=C\C=C\C=C(C)\C=C\C=C(C)\C=C\C(=O)O [HBx]      0.36
2  CO/N=C(\C(=O)N[C@@H]1C(=O)N2C(C(=O)O)=C(CSc3nc(=O)c(=O)[nH]n3C)CS[C@H]12)c1csc(N)n1 [Ceftriaxone, ceftriaxone]      0.53
3     O=c1ccc2ccccc2o1 [Coumarin, coumarin]      25.2

Consider the compound CCn1cc(C(=O)O)c(=O)c2cc(F)c(N3CCNCC3)cc21 [Norfloxacin, norfloxacin] . State its measured Papp.
1.56

====

Assay: Kinetic solubility assay
Format: physicochemical
Conditions: PBS buffer, aqueous buffer, kinetic from dmso stock; pH 7.4, 24 h, 37 °C
recorded-endpoint: solubility at 24 h (µM)
Respond numerically; units are µM and should not be typed.

Consider the compound `COC(=O)/C=C/C(C)=C\C=C\C(C)=C\C=C\C=C(C)\C=C\C=C(C)\C=C\C(=O)O` . State its measured solubility at 24 h.
43

====

Experiment: Kinetic solubility assay
Assay type: physicochemical
Details: buffered solution pH 2.0 (commercial), aqueous buffer, kinetic from dmso stock; pH 2.0, 24 h, 37 °C
recorded-endpoint: solubility at 24 h

Consider the compound `COC(=O)/C=C/C(C)=C\C=C\C(C)=C\C=C\C=C(C)\C=C\C=C(C)\C=C\C(=O)O` . State its measured solubility at 24 h.
< 1 µM

====

Test: Kinetic solubility assay
Assay type: physicochemical
Settings: buffered solution pH 2.0 (commercial), aqueous buffer, kinetic from dmso stock; pH 2.0, 4 h, 37 °C
recorded-endpoint: solubility at 4 h

Consider the compound `COC(=O)/C=C/C(C)=C\C=C\C(C)=C\C=C\C=C(C)\C=C\C=C(C)\C=C\C(=O)O` . State its measured solubility at 4 h.
< 1 µM

====

Assay: Kinetic solubility assay
Format: physicochemical
Details: PBS buffer, aqueous buffer, kinetic from dmso stock; pH 7.4, 4 h, 37 °C
recorded-endpoint: solubility at 4 h (µM)
Respond numerically; units are µM and should not be typed.

Consider the compound COC(=O)/C=C/C(C)=C\C=C\C(C)=C\C=C\C=C(C)\C=C\C=C(C)\C=C\C(=O)O [HBx] . State its measured solubility at 4 h.
64

====

Experiment: Kinetic solubility assay
Type: physicochemical
Settings: potassium-phosphate-buffered saline solution (KPE) buffer, aqueous buffer, kinetic from dmso stock; pH 6.6, 4 h, 37 °C
recorded-endpoint: solubility at 4 h (µM)
Respond numerically; units are µM and should not be typed.

Consider the molecule COC(=O)/C=C/C(C)=C\C=C\C(C)=C\C=C\C=C(C)\C=C\C=C(C)\C=C\C(=O)O [HBx] . State its measured solubility at 4 h.
30

====

Assay: PAMPA-GIT permeability assay
Assay type: in vitro ADME
Settings: absorbed fraction
Measured Experimental Fa values are reported for all entries that follow.
Respond numerically; units are % and should not be typed.

Consider the worked cases shown below.
> print(dat)
                                 cpd.smiles  observed
1  CO/N=C(\C(=O)N[C@@H]1C(=O)N2C(C(=O)O)=C(CSc3nc(=O)c(=O)[nH]n3C)CS[C@H]12)c1csc(N)n1     18.19
2                          O=c1ccc2ccccc2o1     99.99
3              Nc1nc2c(ncn2COCCO)c(=O)[nH]1     12.64

Consider the compound `COC(=O)/C=C/C(C)=C\C=C\C(C)=C\C=C\C=C(C)\C=C\C=C(C)\C=C\C(=O)O` . State its measured Experimental Fa.
12.79
